Target: Prolyl endopeptidase FAP (Bos taurus, UniProt A5D7B7)
Sequence (A5D7B7 whole entry): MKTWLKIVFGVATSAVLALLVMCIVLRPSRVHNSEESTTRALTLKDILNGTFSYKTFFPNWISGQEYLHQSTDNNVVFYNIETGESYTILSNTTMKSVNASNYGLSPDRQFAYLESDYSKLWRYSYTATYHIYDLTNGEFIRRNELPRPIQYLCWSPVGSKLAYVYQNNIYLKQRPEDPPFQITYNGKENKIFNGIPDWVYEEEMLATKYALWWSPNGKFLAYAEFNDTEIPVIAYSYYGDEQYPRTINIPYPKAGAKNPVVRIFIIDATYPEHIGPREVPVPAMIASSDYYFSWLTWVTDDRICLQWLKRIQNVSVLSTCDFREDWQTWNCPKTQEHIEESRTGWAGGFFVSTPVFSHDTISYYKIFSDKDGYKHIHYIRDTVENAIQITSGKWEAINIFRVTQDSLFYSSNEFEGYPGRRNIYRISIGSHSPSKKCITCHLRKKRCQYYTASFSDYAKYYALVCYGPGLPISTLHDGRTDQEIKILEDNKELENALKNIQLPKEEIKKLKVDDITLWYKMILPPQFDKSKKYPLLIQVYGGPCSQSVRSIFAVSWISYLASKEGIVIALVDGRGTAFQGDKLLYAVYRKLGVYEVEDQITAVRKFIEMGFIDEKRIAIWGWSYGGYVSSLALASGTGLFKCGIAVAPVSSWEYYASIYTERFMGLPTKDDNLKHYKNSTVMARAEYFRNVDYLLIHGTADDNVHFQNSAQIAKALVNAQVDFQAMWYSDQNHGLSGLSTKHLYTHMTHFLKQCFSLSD
Test: Inhibition of bovine serum FAP
pIC50: −log10 of the molar value.
Quick reference for pIC50 among some molecules
READOUT_LABEL: pIC50

# SMILES_NOTATION, VALUE_OPERATOR, TEST_VALUE
data = [
    ("N[C@H]1C[C@@H](N2Cc3[nH]nc(NC(=O)C4CC4)c3C2)CO[C@@H]1c1cc(F)ccc1F", "=", 4.66),
    ("CCS(=O)(=O)n1cc2c(n1)CN([C@H]1CO[C@H](c3cc(F)ccc3F)[C@@H](N)C1)C2", "=", 4.16),
    ("CC(C)S(=O)(=O)c1n[nH]c2c1CN([C@H]1CO[C@H](c3cc(F)ccc3F)[C@@H](N)C1)C2", "=", 4.80),
    ("N[C@H]1C[C@@H](N2Cc3cn(S(=O)(=O)c4cccc(C(F)(F)F)c4)nc3C2)CO[C@@H]1c1cc(F)ccc1F", "<", 4.00),
    ("CS(=O)(=O)n1cc2c(n1)CN([C@H]1CO[C@H](c3cc(F)ccc3F)[C@@H](N)C1)C2", "<", 4.00),
    ("N[C@H]1C[C@@H](N2Cc3[nH]nc(NS(=O)(=O)C4CC4)c3C2)CO[C@@H]1c1cc(F)ccc1F", "=", 5.42),
    ("N[C@H]1C[C@@H](N2Cc3[nH]nc(NC(=O)c4ccncc4)c3C2)CO[C@@H]1c1cc(F)ccc1F", "=", 4.57),
    ("CC(C)S(=O)(=O)n1cc2c(n1)CN([C@H]1CO[C@H](c3cc(F)ccc3F)[C@@H](N)C1)C2", "<", 4.00),
    ("Cn1cnc(S(=O)(=O)n2ncc3c2CN([C@H]2CO[C@H](c4cc(F)ccc4F)[C@@H](N)C2)C3)c1", "=", 4.35),
    ("N[C@H]1C[C@@H](N2Cc3[nH]nc(NC(=O)c4nccs4)c3C2)CO[C@@H]1c1cc(F)ccc1F", "=", 4.40),
]

----------
Experiment: Half life in dog at 1 mg/kg, iv and 2 mg/kg, po
Assay type: ADME, organism-based, Canis lupus familiaris
Conditions: in vivo
READOUT_LABEL: half-life (h)

# COMPOUND, TEST_VALUE
data = [
    ("N[C@H]1C[C@@H](N2Cc3cn(S(=O)(=O)C4CC4)nc3C2)CO[C@@H]1c1cc(F)ccc1F", 17),
    ("CCS(=O)(=O)n1cc2c(n1)CN([C@H]1CO[C@H](c3cc(F)ccc3F)[C@@H](N)C1)C2", 13),
    ("CS(=O)(=O)n1cc2c(n1)CN([C@H]1CO[C@H](c3cc(F)ccc3F)[C@@H](N)C1)C2 [OMARIGLIPTIN]", 22),
]

----------
Assay: Plasma clearance in dog at 1 mg/kg, iv and 2 mg/kg, po
Format: ADME, organism-based, Canis lupus familiaris

# SMILES_NOTATION, clearance / mL/min/kg
data = [
    ("N[C@H]1C[C@@H](N2Cc3cn(S(=O)(=O)C4CC4)nc3C2)CO[C@@H]1c1cc(F)ccc1F", 1.6),
    ("CS(=O)(=O)n1cc2c(n1)CN([C@H]1CO[C@H](c3cc(F)ccc3F)[C@@H](N)C1)C2", 0.9),
    ("CCS(=O)(=O)n1cc2c(n1)CN([C@H]1CO[C@H](c3cc(F)ccc3F)[C@@H](N)C1)C2", 3.3),
]

----------
System: Canis familiaris
Experiment: Dose normalized AUC in dog at 1 mg/kg, iv and 2 mg/kg, po
Assay type: ADME, organism-based, Canis lupus familiaris
Details: in vivo
Quick reference for AUC/dose among some compounds
READOUT_LABEL: AUC/dose (µM·h/mg/kg)

# SMILES_NOTATION, TEST_SYSTEM, TEST_VALUE
rows = [
    ("N[C@H]1C[C@@H](N2Cc3cn(S(=O)(=O)C4CC4)nc3C2)CO[C@@H]1c1cc(F)ccc1F", "Canis familiaris", 25),
    ("N[C@H]1C[C@@H](N2Cc3cn[nH]c3C2)CO[C@@H]1c1cc(F)ccc1F", "Canis familiaris", 16),
    ("CS(=O)(=O)n1cc2c(n1)CN([C@H]1CO[C@H](c3cc(F)ccc3F)[C@@H](N)C1)C2", "Canis familiaris", 54),
    ("CCS(=O)(=O)n1cc2c(n1)CN([C@H]1CO[C@H](c3cc(F)ccc3F)[C@@H](N)C1)C2", "Canis familiaris", 25),
]

----------
Assay: Half life in rat at 1 mg/kg, iv and 2 mg/kg, po
Type: ADME, organism-based
Settings: in vivo
READOUT_LABEL: half-life (h)

# SMILES_NOTATION, TEST_VALUE
records = [
    ("CS(=O)(=O)Nc1n[nH]c2c1CN([C@H]1CO[C@H](c3cc(F)ccc3F)[C@@H](N)C1)C2", 2),
    ("N[C@H]1C[C@@H](N2Cc3cn(S(=O)(=O)C4CC4)nc3C2)CO[C@@H]1c1cc(F)ccc1F", 6.2),
    ("N[C@H]1C[C@@H](N2Cc3cn(S(=O)(=O)C4CCCC4)nc3C2)CO[C@@H]1c1cc(F)ccc1F", 1.5),
    ("N[C@H]1C[C@@H](N2Cc3cnn(S(=O)(=O)C4CCCC4)c3C2)CO[C@@H]1c1cc(F)ccc1F", 0.5),
    ("N[C@H]1C[C@@H](N2Cc3[nH]nc(NC(=O)C4CC4)c3C2)CO[C@@H]1c1cc(F)ccc1F", 5.5),
    ("CCS(=O)(=O)n1cc2c(n1)CN([C@H]1CO[C@H](c3cc(F)ccc3F)[C@@H](N)C1)C2", 5.2),
    ("CCS(=O)(=O)Nc1n[nH]c2c1CN([C@H]1CO[C@H](c3cc(F)ccc3F)[C@@H](N)C1)C2", 2.1),
    ("CCC(=O)Nc1n[nH]c2c1CN([C@H]1CO[C@H](c3cc(F)ccc3F)[C@@H](N)C1)C2", 2.2),
    ("N[C@H]1C[C@@H](N2Cc3cnn(S(=O)(=O)C4CC4)c3C2)CO[C@@H]1c1cc(F)ccc1F", 1.6),
    ("N[C@H]1C[C@@H](N2Cc3[nH]nc(NS(=O)(=O)C4CC4)c3C2)CO[C@@H]1c1cc(F)ccc1F", 1.5),
    ("CC(C)S(=O)(=O)n1cc2c(n1)CN([C@H]1CO[C@H](c3cc(F)ccc3F)[C@@H](N)C1)C2", 1.3),
]

----------
Assay: Plasma clearance in rat at 1 mg/kg, iv and 2 mg/kg, po
Format: ADME, organism-based
Classification field: enter Fulfilled for clearance values not below 20 mL/min/kg, Not fulfilled for values below it.

# SMILES_NOTATION, ANSWER_LABEL
records = [
    ("N[C@H]1C[C@@H](N2Cc3cnn(S(=O)(=O)C4CCCC4)c3C2)CO[C@@H]1c1cc(F)ccc1F", "Fulfilled"),
    ("N[C@H]1C[C@@H](N2Cc3[nH]nc(NS(=O)(=O)C4CC4)c3C2)CO[C@@H]1c1cc(F)ccc1F", "Fulfilled"),
    ("CCC(=O)Nc1n[nH]c2c1CN([C@H]1CO[C@H](c3cc(F)ccc3F)[C@@H](N)C1)C2", "Fulfilled"),
    ("CCS(=O)(=O)Nc1n[nH]c2c1CN([C@H]1CO[C@H](c3cc(F)ccc3F)[C@@H](N)C1)C2", "Not fulfilled"),
    ("CCS(=O)(=O)n1cc2c(n1)CN([C@H]1CO[C@H](c3cc(F)ccc3F)[C@@H](N)C1)C2", "Not fulfilled"),
    ("CS(=O)(=O)Nc1n[nH]c2c1CN([C@H]1CO[C@H](c3cc(F)ccc3F)[C@@H](N)C1)C2", "Not fulfilled"),
    ("N[C@H]1C[C@@H](N2Cc3[nH]nc(NC(=O)C4CC4)c3C2)CO[C@@H]1c1cc(F)ccc1F", "Fulfilled"),
    ("N[C@H]1C[C@@H](N2Cc3cn(S(=O)(=O)C4CC4)nc3C2)CO[C@@H]1c1cc(F)ccc1F", "Not fulfilled"),
    ("N[C@H]1C[C@@H](N2Cc3cn(S(=O)(=O)C4CCCC4)nc3C2)CO[C@@H]1c1cc(F)ccc1F", "Fulfilled"),
    ("N[C@H]1C[C@@H](N2Cc3cnn(S(=O)(=O)C4CC4)c3C2)CO[C@@H]1c1cc(F)ccc1F", "Fulfilled"),
    ("CC(C)S(=O)(=O)n1cc2c(n1)CN([C@H]1CO[C@H](c3cc(F)ccc3F)[C@@H](N)C1)C2", "Not fulfilled"),
]

----------
Tested on: Rattus norvegicus
Assay: Dose normalized AUC in rat at 1 mg/kg, iv and 2 mg/kg, po
Type: ADME, organism-based
Conditions: in vivo
Quick reference for AUC/dose among some molecules

# SMILES_NOTATION, READOUT_UNIT, AUC/dose
measured = [
    ("N[C@H]1C[C@@H](N2Cc3[nH]nc(NC(=O)C4CC4)c3C2)CO[C@@H]1c1cc(F)ccc1F", "µM·h/mg/kg", 0.6),
    ("N[C@H]1C[C@@H](N2Cc3[nH]nc(NS(=O)(=O)C4CC4)c3C2)CO[C@@H]1c1cc(F)ccc1F", "µM·h/mg/kg", 1.6),
    ("CCC(=O)Nc1n[nH]c2c1CN([C@H]1CO[C@H](c3cc(F)ccc3F)[C@@H](N)C1)C2", "µM·h/mg/kg", 0.7),
    ("CC(C)S(=O)(=O)n1cc2c(n1)CN([C@H]1CO[C@H](c3cc(F)ccc3F)[C@@H](N)C1)C2", "µM·h/mg/kg", 5.6),
]
